target system: human M1 (Homo sapiens, UniProt P11229)
experiment notes: Calcium mobilization assay, human M1 (agonist and PAM modes)
Assay type: cell-based
test parameters: PAM mode, % ACh max
The following molecules are listed with their measured hM1 PAM AChmax (%) values.
assay endpoint: hM1 PAM AChmax (%)

>>> print(df.to_string())
                                 mol_smiles  endpoint_unit  reading
0  Cn1ccc2nc(C(=O)NC3CCOCC3)cc(Cc3ccc(-c4cc[nH]n4)cc3)c21              %       73
1  Cn1ccc(-c2ccc(Cc3cc(C(=O)NC4CCOCC4)nc4ccsc34)cc2)n1              %       73
2  Cn1ccc(-c2ccc(Cc3cc(C(=O)N[C@H]4CCOC[C@@H]4O)nc4ccn(C)c34)cc2)n1              %       71
3  Cn1ccc(-c2ccc(Cc3cc(C(=O)NC4CCOCC4)nc4ccn(C)c34)cc2)n1              %       80

====

experiment notes: IV/PO pharmacokinetics, NHP
Type: in vivo
test parameters: cynomolgus monkey, plasma, 1 mg/kg; NHP (cyno), dose iv/po 1/3 mg/kg; read-out: elimination t1/2 (converted)
assay endpoint: half-life (h)

>>> df
                                 mol_smiles  endpoint_unit  reading
0  Cn1ccc(-c2ccc(Cc3cc(C(=O)NC4CCOCC4)nc4ccsc34)cc2)n1              h      4.5

====

experiment notes: Plasma protein binding, human
Assay type: in vitro ADME
test parameters: pH 7.4, read-out: fu,plasma human
The following molecules are listed with their measured fraction unbound at 6 h, 5 µM values.
assay endpoint: fraction unbound at 6 h, 5 µM

In [3]: df
Out[3]:
                                 mol_smiles  reading
0  Cn1ccc(-c2ccc(Cc3cc(C(=O)NC4CCOCC4)nc4ccsc34)cc2)n1    0.005
1  Cn1ccc(-c2ccc(Cc3cc(C(=O)NC4CCOCC4)nc4ccn(C)c34)cc2)n1    0.016
2  Cn1ccc2nc(C(=O)NC3CCOCC3)cc(Cc3ccc(-c4cc[nH]n4)cc3)c21    0.047

====

target system: human M1 (Homo sapiens)
Sequence (P11229 1-460): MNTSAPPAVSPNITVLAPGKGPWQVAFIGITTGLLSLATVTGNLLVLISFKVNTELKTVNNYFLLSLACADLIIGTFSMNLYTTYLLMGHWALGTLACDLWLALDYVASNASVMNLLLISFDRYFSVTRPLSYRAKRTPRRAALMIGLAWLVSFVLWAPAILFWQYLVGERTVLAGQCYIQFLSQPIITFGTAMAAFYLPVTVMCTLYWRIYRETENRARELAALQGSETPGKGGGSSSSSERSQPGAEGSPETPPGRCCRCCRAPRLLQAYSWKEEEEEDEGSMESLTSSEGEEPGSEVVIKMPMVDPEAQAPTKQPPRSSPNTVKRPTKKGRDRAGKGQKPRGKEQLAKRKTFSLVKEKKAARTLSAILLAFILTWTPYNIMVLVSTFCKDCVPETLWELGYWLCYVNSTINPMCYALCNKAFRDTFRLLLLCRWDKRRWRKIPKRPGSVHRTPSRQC
experiment notes: Calcium mobilization assay, human M1 (agonist and PAM modes)
Assay type: cell-based
test parameters: agonist mode; read-out: human M1 agonism EC50
The following compounds are listed with their measured EC50 values.
assay endpoint: EC50 (nM)

>>> print(df.to_string())
                                   compound            target_system  assay_endpoint  endpoint_unit  reading
0  Cn1ccc2nc(C(=O)NC3CCOCC3)cc(Cc3ccc(-c4cc[nH]n4)cc3)c21 [compound 24]  human M1 (Homo sapiens)            EC50             nM     2100
1  Cn1ccc(-c2ccc(Cc3cc(C(=O)NC4CCOCC4)nc4ccsc34)cc2)n1 [compound 12]  human M1 (Homo sapiens)            EC50             nM     3100

====

target system: mouse M1 (Mus musculus)
Sequence (P12657 whole entry): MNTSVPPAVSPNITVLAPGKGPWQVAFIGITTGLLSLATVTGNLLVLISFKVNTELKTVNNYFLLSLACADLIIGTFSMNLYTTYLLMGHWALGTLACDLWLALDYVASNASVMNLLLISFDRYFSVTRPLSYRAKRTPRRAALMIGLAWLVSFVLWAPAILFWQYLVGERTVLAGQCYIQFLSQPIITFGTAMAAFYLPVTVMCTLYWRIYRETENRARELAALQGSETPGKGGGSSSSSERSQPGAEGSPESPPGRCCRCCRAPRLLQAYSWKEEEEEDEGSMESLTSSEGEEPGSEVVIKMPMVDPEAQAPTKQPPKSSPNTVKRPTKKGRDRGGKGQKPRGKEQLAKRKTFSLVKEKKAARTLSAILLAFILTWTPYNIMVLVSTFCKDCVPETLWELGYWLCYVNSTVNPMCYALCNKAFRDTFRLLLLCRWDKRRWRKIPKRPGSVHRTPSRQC
experiment notes: Calcium mobilization assay, mouse M1 PAM
test parameters: PAM mode
pEC50: −log10 of the molar value.
assay endpoint: pEC50

                                   compound  assay_endpoint  reading
0  Cn1ccc(-c2ccc(Cc3cc(C(=O)NC4CCOCC4)nc4ccn(C)c34)cc2)n1 [compound 11]           pEC50     7.04

====

experiment notes: IV/PO pharmacokinetics, dog
Assay type: in vivo, dog (beagle or mongrel)
test parameters: plasma, 1 mg/kg, dose iv/po 1/5 mg/kg, read-out: Vss
assay endpoint: Vd

                                   molecule   reading
0  Cn1ccc(-c2ccc(Cc3cc(C(=O)NC4CCOCC4)nc4ccn(C)c34)cc2)n1 [compound 11]  2.2 L/kg

====

target system: rat M1 (Rattus norvegicus, UniProt P08482)
Construct: expressed in transfected cells; host or cells: CHO (stated in general for all functional cell-based assays)
Sequence (P08482 whole entry): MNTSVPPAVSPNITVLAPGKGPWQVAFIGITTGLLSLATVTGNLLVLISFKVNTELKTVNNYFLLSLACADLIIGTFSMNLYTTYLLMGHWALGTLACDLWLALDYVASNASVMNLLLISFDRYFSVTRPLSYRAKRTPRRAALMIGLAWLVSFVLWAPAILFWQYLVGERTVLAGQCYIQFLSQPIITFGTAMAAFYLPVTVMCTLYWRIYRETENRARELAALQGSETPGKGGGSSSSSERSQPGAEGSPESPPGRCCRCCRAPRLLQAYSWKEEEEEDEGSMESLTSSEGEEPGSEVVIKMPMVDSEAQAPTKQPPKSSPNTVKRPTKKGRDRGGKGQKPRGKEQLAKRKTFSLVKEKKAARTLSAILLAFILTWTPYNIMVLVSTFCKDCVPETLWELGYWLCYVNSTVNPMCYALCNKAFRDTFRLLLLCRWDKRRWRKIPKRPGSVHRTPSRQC
experiment notes: Calcium mobilization assay, rat M1 (agonist and PAM modes)
Type: cell-based
test parameters: agonist mode; read-out: rM1 Agonist EC50
pEC50: −log10 of the molar value.
The following compounds are listed with their measured pEC50 values.
assay endpoint: pEC50

                                 mol_smiles  reading
0  Cn1ccc(-c2ccc(Cc3cc(C(=O)NC4CCOCC4)nc4ccn(C)c34)cc2)n1     5.13
1  Cn1ccc(-c2ccc(Cc3cc(C(=O)NC4CCOCC4)nc4ccsc34)cc2)n1     5.36

====

experiment notes: IV/PO pharmacokinetics, dog
Type: in vivo, dog (beagle or mongrel)
test parameters: plasma, 1 mg/kg, dose iv/po 1/3 mg/kg, read-out: CLp
assay endpoint: clearance (mL/min/kg)

                                   compound  reading
0  Cn1ccc(-c2ccc(Cc3cc(C(=O)NC4CCOCC4)nc4ccsc34)cc2)n1 [compound 12]      1.3

====

experiment notes: IV/PO pharmacokinetics, dog
Type: in vivo, dog (beagle or mongrel)
test parameters: plasma, 1 mg/kg, dose iv/po 1/3 mg/kg, read-out: elimination t1/2 (converted)
assay endpoint: half-life (h)

>>> df
                                 mol_smiles  assay_endpoint  endpoint_unit  reading
0  Cn1ccc(-c2ccc(Cc3cc(C(=O)NC4CCOCC4)nc4ccsc34)cc2)n1       half-life              h     36.6

====

experiment notes: IV/PO pharmacokinetics, dog
Type: in vivo, dog (beagle or mongrel)
test parameters: plasma, 1 mg/kg, dose iv/po 1/3 mg/kg, read-out: Vss
assay endpoint: Vd (L/kg)

>>> print(df.to_string())
                                   compound  assay_endpoint  reading
0  Cn1ccc(-c2ccc(Cc3cc(C(=O)NC4CCOCC4)nc4ccsc34)cc2)n1 [compound 12]              Vd        4

====

experiment notes: Rat IV plasma:brain level cassette
Format: in vivo
test parameters: male, Sprague-Dawley, brain and plasma, 0.25 mg/kg, 15 min
Procedure: PAMs 11 and 12 were next evaluated in our rat IV plasma: brain level cassette paradigm (0.25 mg/kg compound, 1 mg/kg total dose, 10.1% EtOH:40.4% PEG400:49.5% DMSO) sampled at a set 15 min time point to assess CNS penetration. […] Samples were analyzed on a Thermo Electron TSQ Quantum Ultra triple quad mass spectrometer (San Jose, CA) via electrospray ionization (ESI) with two Themo Electron Accella pumps (San Jose, CA), and a Leap Technologies CTC PAL autosampler (Carrboro, NC). […]
assay endpoint: Kp uu at 0.25 h

>>> print(df.to_string())
                                 mol_smiles  reading
0  Cn1ccc(-c2ccc(Cc3cc(C(=O)NC4CCOCC4)nc4ccsc34)cc2)n1      0.7
1  Cn1ccc(-c2ccc(Cc3cc(C(=O)NC4CCOCC4)nc4ccn(C)c34)cc2)n1     0.36

====

target system: rat M1 (Rattus norvegicus, UniProt P08482)
Construct: expressed in transfected cells; host or cells: CHO (stated in general for all functional cell-based assays)
experiment notes: Calcium mobilization assay, rat M1 (agonist and PAM modes)
Assay type: cell-based
test parameters: agonist mode; read-out: rat M1 agonism EC50
assay endpoint: EC50

>>> df
                                 mol_smiles  reading
0  Cn1ccc2nc(C(=O)NC3CCOCC3)cc(Cc3ccc(-c4cc[nH]n4)cc3)c21   3.1 µM

====

experiment notes: Rat IV plasma:brain level cassette
Type: in vivo
test parameters: male, Sprague Dawley, brain, 0.25 mg/kg, read-out: brain concentration
assay endpoint: concentration at 15 min (ng/g)

>>> print(df.to_string())
                                 mol_smiles  reading
0  Cn1ccc(-c2ccc(Cc3cc(C(=O)NC4CCOCC4)nc4ccn(C)c34)cc2)n1       39
1  Cn1ccc(-c2ccc(Cc3cc(C(=O)NC4CCOCC4)nc4ccsc34)cc2)n1      120
